measuredTarget: human TLR7 (Homo sapiens, UniProt Q9NYK1)
assaySummary: HEK293-Blue hTLR7 reporter assay (QUANTI-BLUE, SEAP readout)
Type: cell-based
Set-up: host or cells: HEK293 (HEK-Blue-hTLR7)
conditionLabel: HEK-Blue-hTLR7 cells, QUANTI-BLUE assay (A1-A76), 24 hrs
measuredAttribute: pEC50
Would you please state pEC50, meaning minus log10 of the concentration in mol/L, as a bare number?

Some entries whose results are on file:
>>> observedresult("CCCCOc1nc(N)c2ncc(Cc3ccc(CC4CCNCC4)cc3)n2n1 [Compound A33]")
5.98
>>> observedresult("CCCCOc1nc(N)c2ncc(Cc3ccc(OCCCN(C)C)c(F)c3)n2n1 [Compound A35]")
5.68
>>> observedresult("CCCCOc1nc(N)c2ncc(Cc3ccc(OCCCNC)cc3)n2n1 [Compound A63]")
6.00
>>> observedresult("CCCCOc1nc(N)c2ncc(Cc3ccc(OCCCN(C)C)cc3F)n2n1 [Compound A36]")
6.06
>>> observedresult("CCCCOc1nc(N)c2ncc(Cc3ccc(CN4CCCC4)cc3F)n2n1 [Compound A20]")
5.76

Query compound follows.
QUERY: Consider the compound shown here: CCCCOc1nc(N)c2ncc(Cc3ccc(OCCCN4CCOCC4)cc3)n2n1 [Compound A22] What is its recorded pEC50?
RESULT: 5.24

* * *

compounds and their reported EC50
measuredTarget: UniProt Q9NYK1
Sequence (Q9NYK1 27-1049): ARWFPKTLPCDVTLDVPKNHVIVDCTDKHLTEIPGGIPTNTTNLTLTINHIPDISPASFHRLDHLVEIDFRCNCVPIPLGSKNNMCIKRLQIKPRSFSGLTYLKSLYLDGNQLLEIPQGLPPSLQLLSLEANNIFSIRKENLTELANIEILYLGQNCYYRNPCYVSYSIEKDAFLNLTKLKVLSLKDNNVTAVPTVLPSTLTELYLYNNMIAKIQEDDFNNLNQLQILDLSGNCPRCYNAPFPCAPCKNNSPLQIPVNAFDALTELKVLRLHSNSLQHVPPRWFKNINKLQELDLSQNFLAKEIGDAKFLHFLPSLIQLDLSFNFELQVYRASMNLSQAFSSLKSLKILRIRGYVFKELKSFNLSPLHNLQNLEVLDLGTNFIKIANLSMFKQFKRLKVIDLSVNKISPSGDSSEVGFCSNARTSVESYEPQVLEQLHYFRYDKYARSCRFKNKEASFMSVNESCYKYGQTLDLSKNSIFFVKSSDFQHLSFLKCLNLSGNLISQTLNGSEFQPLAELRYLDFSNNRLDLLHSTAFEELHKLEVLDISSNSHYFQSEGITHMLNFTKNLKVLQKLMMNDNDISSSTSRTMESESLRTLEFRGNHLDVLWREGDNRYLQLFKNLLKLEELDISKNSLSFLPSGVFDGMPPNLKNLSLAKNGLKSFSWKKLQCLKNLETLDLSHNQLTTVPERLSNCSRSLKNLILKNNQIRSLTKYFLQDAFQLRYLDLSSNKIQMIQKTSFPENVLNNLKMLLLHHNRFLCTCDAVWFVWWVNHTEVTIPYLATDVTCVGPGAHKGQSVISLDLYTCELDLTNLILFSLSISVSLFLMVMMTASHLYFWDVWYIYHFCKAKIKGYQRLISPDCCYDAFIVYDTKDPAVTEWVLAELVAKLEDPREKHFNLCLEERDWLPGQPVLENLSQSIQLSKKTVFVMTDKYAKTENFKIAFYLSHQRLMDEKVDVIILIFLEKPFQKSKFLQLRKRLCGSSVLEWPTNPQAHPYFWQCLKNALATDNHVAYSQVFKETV
assaySummary: HEK293-Blue hTLR7 reporter assay (QUANTI-BLUE, SEAP readout)
Format: cell-based
Set-up: host or cells: HEK293 (HEK-Blue-hTLR7)
conditionLabel: HEK-Blue-hTLR7 cells, QUANTI-BLUE assay (A1-A76), 24 hrs

>>> observedresult("CCCCOc1nc(N)c2ncc(Cc3ccc(CN4CCNCC4)cc3)n2n1 [Compound A10]")
"1170 nM"
>>> observedresult("CCCCOc1nc(N)c2ncc(Cc3ccc(CCN4CCCC4)cc3)n2n1 [Compound A42]")
"1380 nM"
>>> observedresult("CCCCOc1nc(N)c2ncc(Cc3cccc(OCCCN(C)C)c3)n2n1 [Compound A23]")
"> 10000 nM"
>>> observedresult("CCCCOc1nc(N)c2ncc(Cc3ccc(OC4CCN(CC)C4)cc3F)n2n1 (stereo not drawn) [Compound A60]")
"246 nM"
>>> observedresult("CCCCOc1nc(N)c2ncc(Cc3cccc(OC)n3)n2n1 [Compound A51]")
"> 10000 nM"
>>> observedresult("CCCCOc1nc(N)c2ncc(Cc3ccc(OC4CCNC4)cc3F)n2n1 (stereo not drawn) [Compound A61]")
"183 nM"
>>> observedresult("CCCCOc1nc(N)c2ncc(Cc3ccc(C4CCN(C)C4)cc3)n2n1 (stereo not drawn) [Compound A66]")
"387 nM"
>>> observedresult("CCCCOc1nc(N)c2ncc(Cc3ccc(OCCCN)cc3)n2n1 [Compound A31]")
"> 10000 nM"

QUERY: What EC50 value was documented for this compound, CCCCOc1nc(N)c2ncc(Cc3cnc(OC4CCNCC4)c(C)c3)n2n1 [Compound A72] ?
RESULT: 462 nM

QUERY: Dear colleague, I am looking for the recorded EC50 of the following compound: Nc1nc(OCCCC(F)(F)F)nn2c(Cc3ccc(CN4CCCC4)cc3)cnc12 [Compound A69]
RESULT: 1240 nM

QUERY: Param item = Cc1cc(COc2nc(N)c3ncc(Cc4ccc(CN5CCCC5)cc4)n3n2)no1 [Compound A48] ; retrieve measured EC50.
RESULT: > 10000 nM

QUERY: Entry under review: CCCCOc1nc(N)c2ncc(Cc3ccccc3OCCCN(C)C)n2n1 [Compound A27] . Reported EC50?
RESULT: > 10000 nM

QUERY: Given the compound CCCCOc1nc(N)c2ncc(Cc3ccc(OCC(C)(C)CN(C)C)nc3)n2n1 [Compound A53] , what is its reported EC50?
RESULT: 1430 nM

QUERY: // returns reported EC50 for input CCCCOc1nc(N)c2ncc(Cc3cccc(-c4ccc(CN5CCCC5)cc4)c3)n2n1 [Compound A25]
RESULT: > 10000 nM

QUERY: Reported EC50 for COCCOc1nc(N)c2ncc(Cc3cccc(CN4CCCC4)c3)n2n1 [Compound A17] : what is it?
RESULT: > 10000 nM

QUERY: What does the record list as EC50 for Nc1nc(N)c2ncc(Cc3ccc(CN4CCCC4)cc3)n2n1 [Compound A52] ?
RESULT: > 10000 nM

QUERY: Param item = CCCCOc1nc(N)c2ncc(Cc3ncccc3OC)n2n1 [Compound A55] ; retrieve measured EC50.
RESULT: > 10000 nM

QUERY: # get_value(readout='EC50', item= CCCCOc1nc(N)c2ncc(Cc3cccc(CN4CCCC4)c3)n2n1 [Compound A11] )
RESULT: > 10000 nM

Values were extracted from patent US12281119B2.
